test-description: inhibitors of DENV2 cytopathic effect, primary screen, cell-based, plate reader, single concentration (AID 651640)
condition-notes: DENV2-infected cells, cytopathic effect rescue, at 9.99 µM
The whole screen tested about 350,000 compounds, of which about 6,000 (1.7%) were called active. Inconclusive results (about 5%) are left out. Rule as the data show it: active = CPE inhibition above about 20% (passing the limit was not always enough); inconclusive = no clear call, values can overlap the other calls; tested in BHK-21 cells. The sample as a whole holds a higher share of actives than the screen did.
Could you please pick one outcome from this set? Yes for active, No for inactive

Worked examples, 10 compounds total:
>>> cat("COCC(=O)N(C)C[C@@H]1Oc2cc(C#Cc3cccnc3)ccc2S(=O)(=O)N([C@H](C)CO)C[C@H]1C")
"No"
>>> cat("O=C(CN1CCOCC1)Nc1ccccc1")
"No"
>>> cat("C[C@@H]1CN([C@@H](C)CO)C(=O)c2cc(N(C)C)ccc2O[C@@H](C)CCCCO[C@@H]1CN(C)C(=O)CCC(F)(F)F")
"No"
>>> cat("C[C@@H]1CCCCO[C@@H](CN(C)C(=O)Nc2ccc(F)cc2)[C@H](C)CN([C@@H](C)CO)C(=O)c2cc(NS(=O)(=O)c3ccccc3)ccc2O1")
"No"
>>> cat("O=C(C[C@@H]1CC[C@@H]2[C@H](COC[C@@H](O)CN2S(=O)(=O)c2ccccc2)O1)NCC1CCCCC1")
"No"
>>> cat("COc1ccc2c3c(n(C)c2c1)[C@@H](CO)N(C(=O)Nc1ccc(F)cc1)CC31CN(C(=O)NC(C)C)C1")
"No"
>>> cat("O=C(CN1CCc2cc3c(cc2C1)OCCCO3)Nc1ccccc1")
"Yes"
>>> cat("COCC#Cc1ccc2c(c1)O[C@H](CN(C)C(=O)CN(C)C)[C@@H](C)CN([C@H](C)CO)S2(=O)=O")
"No"
>>> cat("O=C(C[C@H]1C=C[C@H](NC(=O)c2cccc(F)c2)[C@@H](CO)O1)NCc1ccc(Oc2ccccc2)cc1")
"No"
>>> cat("CCCNC(=O)Nc1ccc2c(c1)C(=O)N(C)[C@H]1CC[C@H](CC(=O)NCC3CCCCC3)O[C@@H]1CO2")
"No"

What did this assay record as the result for C[C@@H]1CN([C@H](C)CO)S(=O)(=O)c2ccc(C#CCC3CCCC3)cc2O[C@H]1CN(C)C(=O)CC1CC1 ?
No

What did this assay record as the result for CCCCCCSc1ccc(-c2nc3ccc(Cl)cn3c2NCc2ccccc2)cc1 ?
No

What did this assay record as the result for C[C@H](NC(=O)C[C@@H]1C[C@@H]2c3cc(NS(=O)(=O)c4ccc(F)cc4)ccc3O[C@@H]2[C@@H](CO)O1)c1ccccc1 ?
No

What did this assay record as the result for CNC(=O)C[C@@H]1CC[C@H]2[C@H](COc3ccc(NC(=O)C4CC4)cc3C(=O)N2C)O1 ?
No
